// data source = patent US7084111

# study system: mouse melanocortin-4 receptor (mouse, UniProt P56450 1-332)
# Sequence (P56450 whole entry): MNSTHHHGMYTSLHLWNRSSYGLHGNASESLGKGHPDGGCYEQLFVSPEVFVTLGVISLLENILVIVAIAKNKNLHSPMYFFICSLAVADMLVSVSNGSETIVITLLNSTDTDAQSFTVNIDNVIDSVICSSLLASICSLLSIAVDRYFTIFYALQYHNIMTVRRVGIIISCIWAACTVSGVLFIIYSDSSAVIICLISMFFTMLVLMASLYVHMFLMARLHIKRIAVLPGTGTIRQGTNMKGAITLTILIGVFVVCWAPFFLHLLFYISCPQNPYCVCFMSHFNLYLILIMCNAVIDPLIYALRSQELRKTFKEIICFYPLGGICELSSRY
# method: cell-based or functional assay
Bridges are numbered along the chain shown (N, C = ends). Where no end group is shown, it is not given here. [ ]: non-standard residue; d: D form. Dap = NC[C@H](N)C(=O)O
EC50 (agonist) for assorted binders
A number alone suffices; assume µM.

YDHXRWNAFXY (Asp-Dpr side chain lactam bridge; Dpr; DNal(1′); C-terminal amide (amide resin)) [SEQ ID NO:34 (Tyr-c[Asp-His-DNal(1′)-Arg-Trp-Asn-Ala-Phe-Dpr]-Tyr)] ... 0.00057

Form field EC50 (agonist), entry YD[dF]RWNAF[Dap]Y-NH2 (lactam 2-9) [SEQ ID NO:7 (Tyr-c[Asp-DPhe-Arg-Trp-Asn-Ala-Phe-Dpr]-Tyr-NH2)] : 0.45

Form field EC50 (agonist), entry YDFRWNAF[Dap]Y-NH2 (lactam 2-9) [SEQ ID NO:6 (Tyr-c[Asp-Phe-Arg-Trp-Asn-Ala-Phe-Dpr]-Tyr)] : 13.4
